System: P. falciparum stage V gametocytes
Parameters: BacTiter-Glo ATP luminescence viability of purified stage V gametocytes in 384-well plates, per cent inhibition versus DMSO
Details: 48 h, 5 µM; inhibitor
Hit rate of the full screen: of about 13,000 compounds, about 3,200 (25%) showed an effect of 50% or more. This is one part of the list.
READOUT TYPE: % Inhibition (%)
Kindly provide the numeric value in % only, without the unit symbol.

Consider the following illustrative entries.
INSERT INTO measurements (compound, measured) VALUES
  ('COC(=O)c1ccc(CCC(C)NCC(O)c2cccc(C(F)(F)F)c2)cc1 (stereo not shown) [TCMDC-131440]', 17.3),
  ('O=C(NC1CCN(CC2(c3ccccc3F)CCCC2)CC1)c1ccn[nH]1 [TCMDC-124837]', 65.27),
  ('CC(=O)Nc1ccc(CN2CCCN(c3cc(NC(=O)c4cccc(C)c4)ccn3)CC2)cc1 [TCMDC-134980]', 8.133),
  ('CN(Cc1ccccc1)C1CCCN(c2cc(NC(=O)c3cccs3)ccn2)C1 (stereo not shown) [TCMDC-135007]', -39.99);

# input compound: O=C(Nc1cccc(OC2CCN(Cc3ccc(F)cc3)CC2)c1)c1ccc(C(F)(F)F)cc1 [TCMDC-133734] ; wanted: its % Inhibition
-18.45

# input compound: Clc1ncccc1-c1nc(NCCC(c2ccccc2)c2ccccc2)no1 [TCMDC-134181] ; wanted: its % Inhibition
13.92

# input compound: COc1ccc(CNC(=O)c2cnc3c(O)cccc3c2Nc2cccc(NC(=O)c3ccc(F)cc3)c2)cc1.O=C(O)C(F)(F)F [TCMDC-139605] ; wanted: its % Inhibition
78.77

# input compound: O=C(C=Cc1ccc(Cl)c(Cl)c1)NCCCCCN1CCCC(CCCNC(=O)/C=C/c2ccccc2)C1 (stereo not shown) [TCMDC-139577] ; wanted: its % Inhibition
89.65

# input compound: O=C(NC1CCN(CC2(c3ccc(Cl)cc3)CCCCC2)CC1)c1ccn[nH]1 [TCMDC-124828] ; wanted: its % Inhibition
65.33
